- Tested on: SNB-75
- experiment description: NCI tumour cell line growth inhibition, 48 h
Activity calls are given as the source filed them. No stated cut-off is given here; in the data, active = GI50 up to about 1.1 µM and inactive = higher.
Some molecules, each annotated with its measured GI50.

Some entries whose results are on file:
molecule	GI50
O=C1C(c2c(O)[nH]c3ccc([N+](=O)[O-])cc23)=Nc2ccccc21	13.8 µM (inactive)
COc1ccc(/N=[N+](\[O-])c2ccc(OC)cc2)cc1	> 100 µM (inactive)
CCC(=O)NC(Nc1cc(C)on1)(C(F)(F)F)C(F)(F)F	> 100 µM (inactive)
CCC(C(C)N1CC(=O)NC(=O)C1)N1CC(=O)NC(=O)C1 (stereo not drawn)	> 48.9 µM (inactive)
COc1ccc(C(=O)c2[nH]c(Nc3ccc(Cl)cc3)c(C(=S)Nc3ccccc3)c2N)cc1	44 µM (inactive)

For O=P(O)(OCC(O)O)OCC(O)O , write its GI50. > 100 µM (inactive)

For COc1ccc2c(c1)CCCc1c-2nc2ccccc2c1N , write its GI50. 10.7 µM (inactive)

For CC(=O)OCC1OC(n2c3c(cc(C#N)c2=S)CCCCCC3)C(OC(C)=O)C(OC(C)=O)C1OC(C)=O (stereo not drawn) , write its GI50. 27.2 µM (inactive)
